Measured values drawn from ChEMBL document CHEMBL5058564 for this set.

# System: Fibroblast
# Assay Details: Incucyte cell viability with human fibroblast; note: unitless GR value; below 1 slowed growth and below 0 cell loss
# Assay type: toxicity, cell-based
# Recorded Conditions: 6 h, 10 µM, compound concentration 10 uM, replicate number 1, timepoint 6 hours
Output Yes for Growth Rate not less than 0.2; output No otherwise.

API: above_or_equal(metric=Growth Rate, cutoff=0.2) for item N[C@@H]1c2cccnc2[C@H](OC(=O)N2CCC(n3c(=O)[nH]c4ncccc43)CC2)CC[C@H]1c1cccc(F)c1F
No

API: above_or_equal(metric=Growth Rate, cutoff=0.2) for item CC1=C(C)C(=O)C(C(CCCCCC(=O)O)c2ccccc2)=C(C)C1=O (stereo not given)
Yes

API: above_or_equal(metric=Growth Rate, cutoff=0.2) for item CCCCNNC(=O)c1ccc(Br)cc1
No

API: above_or_equal(metric=Growth Rate, cutoff=0.2) for item CCCCC/C=C\C/C=C\C/C=C\C/C=C\CCCC(=O)NCC(=O)O
No

API: above_or_equal(metric=Growth Rate, cutoff=0.2) for item O=C(NCC(=O)N1CC[C@H](N[C@H]2CC[C@@](O)(c3ccc(-c4ncccn4)cn3)CC2)C1)c1cccc(C(F)(F)F)c1
No

API: above_or_equal(metric=Growth Rate, cutoff=0.2) for item O=S(=O)(c1ccccc1)N(CC(F)(F)F)c1ccc(C(O)(C(F)(F)F)C(F)(F)F)cc1
Yes

API: above_or_equal(metric=Growth Rate, cutoff=0.2) for item CCCCCCNC(=O)Nc1ccc(S(=O)(=O)Nc2ccc(CCNC[C@H](O)COc3ccc(O)cc3)cc2)cc1
Yes

API: above_or_equal(metric=Growth Rate, cutoff=0.2) for item CN(C(=O)c1ccccc1)c1cc(N(C)c2ccc3c(c2)CCc2ccc(C(=O)NCCN4CCOCC4)cc2C3=O)ccc1F
No

API: above_or_equal(metric=Growth Rate, cutoff=0.2) for item COc1cc(/C=C/C(=O)NCCn2c(C)cc3ccccc32)cc(OC)c1OC
Yes

API: above_or_equal(metric=Growth Rate, cutoff=0.2) for item Cc1cc(CN)cc(C)c1-c1ncn(C)c1-c1ccnc2cc(F)ccc12
Yes

API: above_or_equal(metric=Growth Rate, cutoff=0.2) for item CCN1/C(=C/C(C)=O)Sc2ccc(OC(C)=O)cc21
No

API: above_or_equal(metric=Growth Rate, cutoff=0.2) for item N#Cc1c(N)nc(SCc2csc(-c3ccc(Cl)cc3)n2)c(C#N)c1-c1ccc(OCCO)cc1
No

API: above_or_equal(metric=Growth Rate, cutoff=0.2) for item Cl.O=C1CC[C@@]2(O)[C@H]3Cc4ccc(O)c5c4[C@@]2(CCN3CC2CC2)[C@H]1O5 [NALTREXONE HYDROCHLORIDE]
Yes

API: above_or_equal(metric=Growth Rate, cutoff=0.2) for item CCOc1nc2cccc(C(=O)O)c2n1Cc1ccc(-c2ccccc2-c2nnn[nH]2)cc1
Yes

API: above_or_equal(metric=Growth Rate, cutoff=0.2) for item Cc1cc(O)c(-c2ccc([C@@H](C)CN(C)C)cc2)c2c1[nH]c(=O)c1sccc12
No

API: above_or_equal(metric=Growth Rate, cutoff=0.2) for item CC(C)Oc1ccc(Cc2ccc(NC3=NCCN3)cc2)cc1
No

API: above_or_equal(metric=Growth Rate, cutoff=0.2) for item Cc1c(C(=O)Nc2ccc(N3C[C@@H](C)O[C@@H](C)C3)nc2)cccc1-c1ccc(OC(F)(F)F)cc1
Yes

API: above_or_equal(metric=Growth Rate, cutoff=0.2) for item O=c1nc2[nH]c3ccccc3nc-2c(=O)[nH]1
No

API: above_or_equal(metric=Growth Rate, cutoff=0.2) for item Br.Br.N=C(N)NCCSC(=N)N
Yes

API: above_or_equal(metric=Growth Rate, cutoff=0.2) for item Cl.Clc1ccc2nsnc2c1NC1=NCCN1 [TIZANIDINE HYDROCHLORIDE]
No

API: above_or_equal(metric=Growth Rate, cutoff=0.2) for item COc1ccccc1N1CCN(CCCCNC(=O)c2ccc3ccccc3c2)CC1.Cl
No

API: above_or_equal(metric=Growth Rate, cutoff=0.2) for item O=C1COc2nccc(-c3ccccc3F)c2CN1Cc1cc(C(F)(F)F)cc(C(F)(F)F)c1
No

API: above_or_equal(metric=Growth Rate, cutoff=0.2) for item CC1(C)SSC(C)(C)[C@@H](NC(=O)[C@@H](N)Cc2ccc(O)cc2)C(=O)NCC(=O)N[C@@H](Cc2ccccc2)C(=O)N[C@H]1C(=O)O.O=C(O)C(F)(F)F
Yes

API: above_or_equal(metric=Growth Rate, cutoff=0.2) for item COc1cc2nc(N3CCN(C(=O)COc4c(OC)cccc4C(C)C)CC3)nc(N)c2cc1OC.Cl.Cl
No

API: above_or_equal(metric=Growth Rate, cutoff=0.2) for item CC[C@@H](C)Nc1nc(C)nc2c(-c3ccc(OC)nc3C)c(C)nn12
No

API: above_or_equal(metric=Growth Rate, cutoff=0.2) for item O=C(NCCO)c1cccc(-c2cc(Nc3ccc(OC(F)(F)F)cc3)ncn2)c1
No

API: above_or_equal(metric=Growth Rate, cutoff=0.2) for item C[C@@H]1CC(=O)Nc2cccc(-c3ccc4c(c3)c(-c3cnn(C)c3)nn4C)c2N1
Yes

API: above_or_equal(metric=Growth Rate, cutoff=0.2) for item COc1ccc2cc(S(=O)(=O)N[C@H](CC(=O)N[C@H](Cc3ccc(CN4[C@H](C)CCC[C@@H]4C)cc3)C(=O)N(C)C(C)C)c3ccc4c(c3)OCO4)ccc2c1.Cl
No

API: above_or_equal(metric=Growth Rate, cutoff=0.2) for item Fc1cccc(/C=N/N=C/c2cccc(F)c2)c1
No

API: above_or_equal(metric=Growth Rate, cutoff=0.2) for item Cn1cc(-c2ccc3occ(-c4cccc(-c5ccncc5)c4)c3n2)cn1
No

API: above_or_equal(metric=Growth Rate, cutoff=0.2) for item CN[C@@H]1Cc2cccc3[nH]c(=O)n(c23)C1.O=C(O)/C=C\C(=O)O
No

API: above_or_equal(metric=Growth Rate, cutoff=0.2) for item COc1cc(C(=O)N2CC[C@@H](O)[C@@H](N)C2)cc2nc(-c3cc4ccccc4n3CC3CC3)n(C)c12.Cl
No

API: above_or_equal(metric=Growth Rate, cutoff=0.2) for item CN1CCC(c2c[nH]c3ccc(O)cc23)CC1
No

API: above_or_equal(metric=Growth Rate, cutoff=0.2) for item CS(=O)(=O)N1CCCC(NC(=O)[C@H](CCC2CCCCC2)NC(=O)c2ccc(CNc3ncnc4c3nnn4-c3ccccc3)cc2)C1 (stereo not given in full)
No

API: above_or_equal(metric=Growth Rate, cutoff=0.2) for item CC(C)(C)c1ccc(-c2coc3ccc(-c4cn[nH]c4)nc23)cc1
No

###

# Test system: HEK-293T
# Assay Details: Incucyte cell viability with HEK293T; note: unitless GR value; below 1 slowed growth and below 0 cell loss
# Format: toxicity, cell-based
# Recorded Conditions: human, 6 h, 10 µM, compound concentration 10 uM, replicate number 2, timepoint 6 hours
Readout Kind: Growth Rate
Form rule: numeric answer, no unit written next to it.

State its Growth Rate: Cl.FC(F)(F)c1ccc(N2CCNCC2)nc1Cl
0.92

State its Growth Rate: CSc1ccccc1N1CCN(CCCCCC(=O)NC2CCCc3ccccc32)CC1.Cl (centres undefined)
-0.04

State its Growth Rate: COc1cc2c(Oc3ccc(NC(=O)C4(C(=O)Nc5ccc(F)cc5)CC4)cc3F)ccnc2cc1OCCCN1CCOCC1
-0.98

State its Growth Rate: c1ccc(NCc2ccc(CNc3ccccn3)cc2)nc1
0.7

State its Growth Rate: CC(C)c1c(NC(=O)Nc2ccc(Cl)cc2)c(=O)n(-c2ccccc2)n1C
0.74

State its Growth Rate: CN(c1ncccc1CNc1ccnc(-c2cc3cc(Cl)ccc3[nH]2)n1)S(C)(=O)=O
-0.53

State its Growth Rate: C=CCN1C[C@H](C(=O)N(CCCN(C)C)C(=O)NCC)C[C@@H]2c3cccc4[nH]cc(c34)C[C@H]21
0.46

State its Growth Rate: CN1CCN(c2ccc(Nc3c4ccccc4nc4ccccc34)cc2)CC1.Cl.Cl.O
-0.96

State its Growth Rate: COc1ccc(S(=O)(=O)N2C(=O)[C@@](c3ccccc3OC)(N3C[C@H](O)C[C@H]3C(=O)N(C)C)c3cc(Cl)ccc32)c(OC)c1
0.78

###

# Test system: Fibroblast
# Assay Details: Incucyte cell viability with human fibroblast; note: unitless GR value; below 1 slowed growth and below 0 cell loss
# Assay type: toxicity, cell-based
# Recorded Conditions: 12 h, 10 µM, compound concentration 10 uM, replicate number 2, timepoint 12 hours
Consider the following compounds; for each one, report its Growth Rate.
Form rule: numeric answer, no unit written next to it.

State its Growth Rate: COc1ccc(NC(=O)c2ccc(-c3ccc(-c4noc(C)n4)cc3C)cc2)cc1OCCN(C)C.Cl
-0.33

State its Growth Rate: CCc1cc2cc(NS(=O)(=O)c3ccc(C#N)cc3)ccc2n(CC)c1=O
0.12

State its Growth Rate: CC(C)OC(=O)N1CCC(Oc2ncnc3c2cnn3-c2ccc(S(C)(=O)=O)cc2F)CC1
0.61

State its Growth Rate: COc1ccccc1N1CCN(CCCCNC(=O)c2ccc3ccccc3c2)CC1.Cl
-0.06

State its Growth Rate: CSCC[C@H](NC(=O)[C@H](CC(C)C)NC(=O)CNC(=O)[C@H](Cc1ccccc1)N(C)C(=O)[C@H](Cc1ccccc1)NC(=O)[C@H](CC(=O)O)NC(=O)CCC(=O)O)C(N)=O [SENKTIDE]
0.87

State its Growth Rate: Cc1nnc2n1-c1sc(CCC(=O)N3CCOCC3)cc1C(c1ccccc1Cl)=NC2 [APAFANT]
0.51

State its Growth Rate: COc1ccc(C(=O)N2CCN(C(=O)/C=C/c3ccc(Br)cc3)CC2)cc1
0.95

State its Growth Rate: OCCCNc1cc(-c2ccnc(Nc3cccc(Cl)c3)n2)ccn1
-0.06

State its Growth Rate: Cc1ccc(OCC(O)C(C)NC(C)C)c2c1CCC2.Cl (stereo not drawn)
0.32

State its Growth Rate: CCOC(=O)c1c(/C(C#N)=C\N)c2ccc(Cl)c(Cl)c2n1C
0.53

State its Growth Rate: C[C@H](CCC(=O)O)[C@H]1CC[C@H]2[C@@H]3CC[C@@H]4C[C@H](O)CC[C@]4(C)[C@H]3CC[C@]12C [LITHOCHOLIC ACID]
0.98

State its Growth Rate: Cc1cc(C)cc([C@H]2c3cc(C)ccc3NC(=O)CN2C(=O)c2ccc(Br)s2)c1
0.64

State its Growth Rate: CCCCCCCCCCCCC/C=C/[C@@H](O)[C@@H](N)COP(=O)([O-])OCC[N+](C)(C)C [SPHINGOSYLPHOSPHORYLCHLOLINE]
-0.25

State its Growth Rate: N=C(N)NCCC[C@@H](NC(=O)C(c1ccccc1)c1ccccc1)C(=O)NCc1ccc(CNC(N)=O)cc1.O=C(O)C(F)(F)F.O=C(O)C(F)(F)F
0.67

State its Growth Rate: Cl.Clc1cccc(Cl)c1NC1=NCCN1 [CLONIDINE HYDROCHLORIDE]
0.46

State its Growth Rate: COC1(C[S@@+]([O-])c2ccccc2)CCN(CCc2c[nH]c3ccc(F)cc23)CC1
0.15

State its Growth Rate: COC(=O)Nc1nc2ccc(C(=O)c3cccs3)cc2[nH]1 [NOCODAZOLE]
-0.2

State its Growth Rate: CCC(=O)NC[C@@H]1C[C@H]1c1cccc2c1CCO2 [TASIMELTEON]
0.49
